Read-out: Peroxisomal acyl-coenzyme A oxidase 1 (ACOX1) gene, ACOX1 (gene 51)
PROTOCOL DETAILS: LTEA_HepaRG_ACOX1: Life Technologies and Expression Analysis (LTEA) Assay for Peroxisomal acyl-coenzyme A oxidase 1 (ACOX1) gene using HepaRG (AID 2283467)
PROTOCOL CONDITIONS: mRNA level, 48 h; actives raise or lower the signal
Activity calls are given as the source filed them. How the source made its calls: active means hit-call score of the fitted dose curve at least 0.9, where 1 is the maximum; inactive means score below 0.9.
Write down one outcome, taken from active, inactive

Some entries whose results are on file:
# COMPOUND, LABEL
data = [
    ("COc1cc(C(C)C)c2c(c1)S(=O)(=O)N(COc1cc(=O)n3cccc(OCCN4CCCCC4)c3n1)C2=O", "active"),
    ("OC[C@H]1O[C@@H]2O[C@H]3[C@H](O)[C@@H](O)[C@@H](O[C@H]4[C@H](O)[C@@H](O)[C@@H](O[C@H]5[C@H](O)[C@@H](O)[C@@H](O[C@H]6[C@H](O)[C@@H](O)[C@@H](O[C@H]7[C@H](O)[C@@H](O)[C@@H](O[C@H]1[C@H](O)[C@H]2O)O[C@@H]7CO)O[C@@H]6CO)O[C@@H]5CO)O[C@@H]4CO)O[C@@H]3CO", "inactive"),
    ("CC(C)C(=O)Nc1ccc([N+](=O)[O-])c(C(F)(F)F)c1", "active"),
    ("O=C(O)c1ccc2c(c1)nc(C(=O)NC1CCN(C3CC3)CC1)n2Cc1cc(-c2ccc(Cl)s2)on1", "inactive"),
    ("O=C(O)c1cccc(C(=O)O)c1", "inactive"),
    ("CCCCCCCCCC", "inactive"),
    ("O=S1(=O)CCCO1", "inactive"),
    ("Nc1ccn([C@@H]2O[C@H](CO)[C@@H](O)[C@@H]2O)c(=O)n1", "inactive"),
]

Could you kindly confirm the outcome this assay logged for `CCN(CC)C(=S)SSC(=S)N(CC)CC` ?
inactive

Could you kindly confirm the outcome this assay logged for `O=c1[nH]cnc2c1ncn2[C@H]1CC[C@@H](CO)O1` ?
inactive

Could you kindly confirm the outcome this assay logged for `NC(N)=O` ?
inactive

Could you kindly confirm the outcome this assay logged for `C=CN1CCCC1=O` ?
inactive

Could you kindly confirm the outcome this assay logged for `CCCC(CCC)C(=O)O` ?
inactive
